Recorded values, source BindingDB's records for doi:10.7270/Q2H130G1.

- target-or-system: Alkaline phosphatase, tissue-nonspecific isozyme (Homo sapiens, UniProt P05186)
- Sequence (P05186 whole entry): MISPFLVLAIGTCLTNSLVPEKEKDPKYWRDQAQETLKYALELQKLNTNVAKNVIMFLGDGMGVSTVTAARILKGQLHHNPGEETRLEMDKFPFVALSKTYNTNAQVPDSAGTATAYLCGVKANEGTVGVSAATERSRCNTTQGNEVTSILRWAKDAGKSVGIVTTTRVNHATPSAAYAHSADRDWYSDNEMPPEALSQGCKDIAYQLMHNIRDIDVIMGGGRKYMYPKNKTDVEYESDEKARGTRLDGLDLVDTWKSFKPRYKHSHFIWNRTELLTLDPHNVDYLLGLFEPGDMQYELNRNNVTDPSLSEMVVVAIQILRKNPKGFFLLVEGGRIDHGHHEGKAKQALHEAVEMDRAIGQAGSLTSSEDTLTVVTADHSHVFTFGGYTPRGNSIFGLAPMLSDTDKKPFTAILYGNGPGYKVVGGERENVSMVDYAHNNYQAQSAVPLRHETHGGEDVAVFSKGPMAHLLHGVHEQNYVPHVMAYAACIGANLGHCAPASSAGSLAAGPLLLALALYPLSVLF
pIC50: −log10 of the molar value.
property-measured: pIC50

# pIC50 of O=C1C=CC(C=NNC(=S)Nc2ccccc2[N+](=O)[O-])C=C1O (stereo unspecified) = 5.82

1 = C#CCOCCOCCOCCNc1nc(N2CCN(C(=O)CCCCCCCCCCNC(=O)[C@H]([C@@H](C)CC)n3cc(CCCCN=C(N)N)nn3)CC2)nc(N2CCN(C(=O)CCCCCCCCCCNC(=O)[C@@H]([C@H](C)O)n3cc(C)nn3)CC2)n1
2 = Oc1ccc(C=Nn2c(O)csc2=S)c(O)c1O
Which is greater in pIC50, the first item 1 or the second item 2 ? API: response body contains the label of the selected item.
1
(1: 5.98, 2: 4.23)

---

- target-or-system: Alkaline phosphatase, tissue-nonspecific isozyme (Homo sapiens)
- Sequence (P05186 whole entry): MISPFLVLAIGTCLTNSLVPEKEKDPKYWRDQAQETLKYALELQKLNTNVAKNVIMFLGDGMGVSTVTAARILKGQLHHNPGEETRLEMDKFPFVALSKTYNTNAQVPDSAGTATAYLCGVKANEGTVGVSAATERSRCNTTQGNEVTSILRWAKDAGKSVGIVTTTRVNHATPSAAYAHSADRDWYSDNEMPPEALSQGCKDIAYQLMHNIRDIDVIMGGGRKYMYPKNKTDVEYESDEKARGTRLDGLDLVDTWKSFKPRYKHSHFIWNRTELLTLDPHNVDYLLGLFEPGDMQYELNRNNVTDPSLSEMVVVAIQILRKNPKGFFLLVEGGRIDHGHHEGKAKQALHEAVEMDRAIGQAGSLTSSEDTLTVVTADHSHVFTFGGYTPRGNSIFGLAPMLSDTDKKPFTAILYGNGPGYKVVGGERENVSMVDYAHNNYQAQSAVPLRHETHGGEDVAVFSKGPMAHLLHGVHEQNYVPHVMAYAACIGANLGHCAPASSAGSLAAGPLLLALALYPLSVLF
pIC50: −log10 of the molar value.
property-measured: pIC50

Assay Alkaline phosphatase, tissue-nonspecific isozyme (Homo sapiens), sample Oc1ccc(CN=Nc2cc(N3CCCC3)nc(N3CCCC3)n2)cc1O , pIC50 read: < 4.00

Response field pIC50 (Alkaline phosphatase, tissue-nonspecific isozyme (Homo sapiens)) for item COc1cc(C=CC(=O)CC(=O)C=Cc2ccc(O)cc2)ccc1O : < 4.00

***
Measured pIC50 for this entry COc1cc(C=Nn2c(O)csc2=S)ccc1O on Alkaline phosphatase, tissue-nonspecific isozyme (Homo sapiens): < 4.00
